assay: Tolerability in CD1 mice: hematology assays (Example 21); assay type: in vivo; details: 50 mg/kg s.c. twice per week for 6 weeks
property.label: Neutrophil (cells/μL)
Answers are plain numbers, in cells/μL.

Use the examples below as a reference point.
sequence.code	property.label	value.units	experimental.value
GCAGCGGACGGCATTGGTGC (antisense; all C 5-methyl, all phosphorothioate, sugars by position not given here; MOE gapmer, 5-10-5) [ISIS 412225, 5-10-5 MOE gapmer]	Neutrophil	cells/μL	1547
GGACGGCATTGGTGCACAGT (antisense; all C 5-methyl, all phosphorothioate, sugars by position not given here; MOE gapmer, 5-10-5) [ISIS 413482, 5-10-5 MOE gapmer]	Neutrophil	cells/μL	1958
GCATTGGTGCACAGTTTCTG (antisense; all C 5-methyl, all phosphorothioate, sugars by position not given here; MOE gapmer, 5-10-5) [ISIS 412224, 5-10-5 MOE gapmer]	Neutrophil	cells/μL	2107
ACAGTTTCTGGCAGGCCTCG (antisense; all C 5-methyl, all phosphorothioate, sugars by position not given here; MOE gapmer, 5-10-5) [ISIS 412223, 5-10-5 MOE gapmer]	Neutrophil	cells/μL	1756

Here is another sequence to look at.
Qu. Need Neutrophil of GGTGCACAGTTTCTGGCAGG (all C 5-methyl, all phosphorothioate, sugars by position not given here; MOE gapmer) [ISIS 413481, 5-10-5 MOE gapmer] , thanks.
Ans. 1904

* * *

assay: Cynomolgus monkeys: body and organ weights (Example 29); format: in vivo; details: escalating doses 5, 10, 25 mg/kg s.c., day 36
In the oligonucleotide strings, read from the 5' end, every base follows the letter of its sugar. An asterisk marks phosphorothioate; unmarked linkages are phosphodiester. Other units and linkages are bracketed, terminal groups are in braces. A string of capitals states the bases alone. e = 2'-O-(2-methoxyethyl) (MOE); [5mC] = 5-methylcytosine; d = 2'-deoxy (DNA)
# Body weight >= 3000 g gives Fulfilled, anything below gives Not fulfilled

Examples with answers:
substance	class.label
ISIS 416838: gapmer of Table 6 (antisense eG*e[5mC]*eA*eA*e[5mC]*d[5mC]*dG*dG*dG*dA*dT*dG*dA*dT*dG*eA*eG*eT*eG*e[5mC])	Not fulfilled
ISIS 417002: gapmer of Table 8 (antisense eG*eG*dT*dG*d[5mC]*dA*d[5mC]*dA*dG*dT*dT*dT*d[5mC]*dT*dG*eG*e[5mC]*eA*eG*eG)	Not fulfilled
ISIS 416850: gapmer of Table 8 (antisense eT*eG*e[5mC]*eA*e[5mC]*dA*dG*dT*dT*dT*d[5mC]*dT*dG*dG*d[5mC]*eA*eG*eG*e[5mC]*e[5mC])	Not fulfilled
ISIS 416858: gapmer of Table 8 (antisense eA*e[5mC]*eG*eG*e[5mC]*dA*dT*dT*dG*dG*dT*dG*d[5mC]*dA*d[5mC]*eA*eG*eT*eT*eT)	Not fulfilled

Qu. Exam item: decide whether the reported Body weight for ISIS 416864: gapmer of Table 8 (antisense eG*eG*e[5mC]*eA*eG*d[5mC]*dG*dG*dA*d[5mC]*dG*dG*d[5mC]*dA*dT*eT*eG*eG*eT*eG) is at least 3000 g.
Ans. Fulfilled

* * *

test system: human Factor XI mRNA; experiment: Dose-dependent inhibition in HepG2 cells, lipofectin (Example 5); type: cell-based; conditions: 18.75 nM, 16 hours
property.label: percent inhibition of human Factor XI mRNA, relative to untreated control cells (%)
One number for each entry, in %.

substance	value.units	experimental.value
416825 (antisense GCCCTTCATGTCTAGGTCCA; 5-10-5 gapmer, wing sugar chemistry not given here, further chemistry not given here) [compound 416825]	%	57

Would you mind giving percent inhibition of human Factor XI mRNA, relative to untreated control cells for every substance in the list below?
1. 417003 (antisense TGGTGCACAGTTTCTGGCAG; 2-13-5 gapmer, wing sugar chemistry not given here, further chemistry not given here) [compound 417003]
2. 416925 (antisense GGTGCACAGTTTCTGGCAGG; 3-14-3 chimeric gapmer, wing sugar chemistry not given here, further chemistry not given here) [compound 416925]
3. 416850 (antisense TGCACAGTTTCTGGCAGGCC; 5-10-5 gapmer, wing sugar chemistry not given here, further chemistry not given here) [compound 416850]
4. 416864 (antisense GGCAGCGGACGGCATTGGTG; 5-10-5 gapmer, wing sugar chemistry not given here, further chemistry not given here) [compound 416864]
5. 416892 (antisense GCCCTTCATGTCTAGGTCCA; 3-14-3 chimeric gapmer, wing sugar chemistry not given here, further chemistry not given here) [compound 416892]
6. 416826 (antisense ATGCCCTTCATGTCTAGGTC; 5-10-5 gapmer, wing sugar chemistry not given here, further chemistry not given here) [compound 416826]

Ans.
64
56
55
65
70
54

Qu. Any idea what its percent inhibition of human Factor XI mRNA, relative to untreated control cells is? The substance is 416858 (antisense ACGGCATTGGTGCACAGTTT; 5-10-5 gapmer, wing sugar chemistry not given here, further chemistry not given here) [compound 416858]
Ans. 61
